Origin of the recorded values: the NIST ThermoML archive (doi:10.1016/j.jct.2013.05.031)

Conditions: 343 K, Capillary rise
Exercise: state measured surface tension liquid-gas for each of the compounds provided.
Give bare numbers, in mN/m.

CCCCCC[N+](CC)(CC)CC.O=S(=O)([N-]S(=O)(=O)C(F)(F)F)C(F)(F)F [triethylhexylammonium bis((trifluoromethyl)sulfonyl)imide]
30.5
CCCCCCCCCCCC[N+](CC)(CC)CC.O=S(=O)([N-]S(=O)(=O)C(F)(F)F)C(F)(F)F
27.7
CCCCC[N+](CC)(CC)CC.O=S(=O)([N-]S(=O)(=O)C(F)(F)F)C(F)(F)F [triethylpentylammonium bis(trifluoromethylsulfonyl)imide]
32.6

# input for lookup
Please report the recorded surface tension liquid-gas for CCCCCCCC[N+](CC)(CC)CC.O=S(=O)([N-]S(=O)(=O)C(F)(F)F)C(F)(F)F [triethyloctylammonium bis[(trifluoromethyl)sulfonyl]imide] .
29.3

====

Conditions: 353 K; 101.33 kPa; Liquid; Pycnometric method
PARAMETER: mass density (kg/m3)
Answers are plain numbers, in kg/m3.

CCCCC[N+](CC)(CC)CC.O=S(=O)([N-]S(=O)(=O)C(F)(F)F)C(F)(F)F [triethylpentylammonium bis(trifluoromethylsulfonyl)imide]
1277.3
CCCCCCCCCCCC[N+](CC)(CC)CC.O=S(=O)([N-]S(=O)(=O)C(F)(F)F)C(F)(F)F
1149.5
CCCCCCCC[N+](CC)(CC)CC.O=S(=O)([N-]S(=O)(=O)C(F)(F)F)C(F)(F)F [triethyloctylammonium bis[(trifluoromethyl)sulfonyl]imide]
1207.8

# input for lookup
Please report the recorded mass density for CCCCCC[N+](CC)(CC)CC.O=S(=O)([N-]S(=O)(=O)C(F)(F)F)C(F)(F)F [triethylhexylammonium bis((trifluoromethyl)sulfonyl)imide] .
1247.3

====

Exercise: state measured surface tension liquid-gas for each of the compounds provided.
Details: 368 K, Capillary rise
One number for each entry, in mN/m.

Go through the items and report each one's surface tension liquid-gas.
1. CCCCC[N+](CC)(CC)CC.O=S(=O)([N-]S(=O)(=O)C(F)(F)F)C(F)(F)F [triethylpentylammonium bis(trifluoromethylsulfonyl)imide]
2. CCCCCC[N+](CC)(CC)CC.O=S(=O)([N-]S(=O)(=O)C(F)(F)F)C(F)(F)F [triethylhexylammonium bis((trifluoromethyl)sulfonyl)imide]
3. CCCCCCCC[N+](CC)(CC)CC.O=S(=O)([N-]S(=O)(=O)C(F)(F)F)C(F)(F)F [triethyloctylammonium bis[(trifluoromethyl)sulfonyl]imide]
4. CCCCCCCCCCCC[N+](CC)(CC)CC.O=S(=O)([N-]S(=O)(=O)C(F)(F)F)C(F)(F)F

30.7
28.5
27.3
25.5

====

Conditions: 318 K; 101.33 kPa; Liquid; Capillary tube (Ostwald / Ubbelohde) method
PARAMETER: viscosity (mPa·s)
Give bare numbers, in mPa·s.

Previously resolved entries follow.
CCCCCCCC[N+](CC)(CC)CC.O=S(=O)([N-]S(=O)(=O)C(F)(F)F)C(F)(F)F [triethyloctylammonium bis[(trifluoromethyl)sulfonyl]imide]
76.47
CCCCCCCCCCCC[N+](CC)(CC)CC.O=S(=O)([N-]S(=O)(=O)C(F)(F)F)C(F)(F)F
98.82
CCCCC[N+](CC)(CC)CC.O=S(=O)([N-]S(=O)(=O)C(F)(F)F)C(F)(F)F [triethylpentylammonium bis(trifluoromethylsulfonyl)imide]
57.52

# input for lookup
Please report the recorded viscosity for CCCCCC[N+](CC)(CC)CC.O=S(=O)([N-]S(=O)(=O)C(F)(F)F)C(F)(F)F [triethylhexylammonium bis((trifluoromethyl)sulfonyl)imide] .
65.32
